molecular target: D(2) dopamine receptor (Bos taurus); assay: Inhibition of binding against Dopamine receptor D2 in bovine striatal homogenate using 200 pM [3H]- spiperone and 250 nM unlabeled ketanserin
Sequence (P20288 whole entry): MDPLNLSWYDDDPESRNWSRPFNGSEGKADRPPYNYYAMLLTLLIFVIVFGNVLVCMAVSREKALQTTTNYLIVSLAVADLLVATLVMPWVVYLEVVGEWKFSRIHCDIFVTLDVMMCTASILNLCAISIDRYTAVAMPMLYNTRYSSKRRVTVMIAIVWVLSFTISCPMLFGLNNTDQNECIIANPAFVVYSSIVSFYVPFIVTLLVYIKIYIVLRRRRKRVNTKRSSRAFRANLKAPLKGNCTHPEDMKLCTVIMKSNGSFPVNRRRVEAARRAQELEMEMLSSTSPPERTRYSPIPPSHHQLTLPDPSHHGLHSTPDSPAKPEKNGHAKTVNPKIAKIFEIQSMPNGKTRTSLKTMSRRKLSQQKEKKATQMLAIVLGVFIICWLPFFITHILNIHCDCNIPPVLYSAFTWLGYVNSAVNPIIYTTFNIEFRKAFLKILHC

| Sample smiles | IC50 |
| --- | --- |
| N#Cc1ccc(C(=O)CC2CCN(CC3CC3)CC2)cc1 | > 1000 nM |

Where these numbers come from: ChEMBL document CHEMBL1126928
